Where these numbers come from: ChEMBL document CHEMBL1201862

tested on: CAKI-1; assay: NCI tumour cell line growth inhibition, 48 h
Active and inactive are the calls of the source. Rule as the data show it: active = GI50 up to about 1.1 µM and inactive = higher. Peptide text beside a SMILES is read from it. * marks the point of attachment. Boc = CC(C)(C)OC(=O)*; OtBu = CC(C)(C)O*
Value Type: GI50

Looking up "O=C1CCC(=O)C1=NNc1ccccc1" , I found its GI50 recorded as > 100 µM (inactive)

The molecule identified as "CCOC(=O)CC(N1CC1)N1CC1" registered its GI50 at > 10 µM (inactive)

Measured GI50 of "O=C(O)COc1ccc(C(=O)/C(SS/C(C(=O)c2ccc(OCC(=O)O)c(Cl)c2Cl)=C2\C=C(c3ccc(Cl)cc3)SS2)=C2/C=C(c3ccc(Cl)cc3)SS2)c(Cl)c1Cl" : 28.1 µM (inactive)

The molecule listed as "C(=C\c1cccs1)/c1cccc(/C=C/c2cccs2)n1" shows GI50 equal to > 100 µM (inactive)

Field GI50 (entry "O=C(Nc1ccccc1C(=O)NCCCO)/C(=C/c1ccccc1O)NC(=O)c1ccccc1" ) reads > 100 µM (inactive)

Record "CSc1ccc(-c2cc(-c3nc4ccccc4[nH]3)nc(N)c2C#N)cc1" , field GI50: 18.3 µM (inactive)

Measured GI50, "Cc1cc(C)nc(NS(=O)(=O)c2ccc(NC(=O)c3cccc4c(N)c5ccccc5nc34)cc2)n1" : > 100 µM (inactive)

Lab note: measured GI50 of CCCOC(=O)NC(C)C(=O)NC(CCC(=O)NC(CCCC(N)C(=O)O)C(=O)NC(C)C(=O)O)C(=O)O (centres undefined) was 19.9 µM (inactive)

Form field GI50, entry CC(C)(C)OC(=O)CC(NC(=O)OC(C)(C)C)C(=O)NC(Cc1ccccc1)C(N)=O (centres undefined) (Boc-Asp(OtBu)-Phe-NH2; configuration not given here) : > 100 µM (inactive)
